Measured melting point of individual entries
Write it as a number; the unit °C goes unstated.

Some entries whose results are on file:
{"columns": ["compound", "readoutUnits", "melting point"],
 "data": [
  ["O=C(Cc1cccs1)Nc1cccc2nc(NC3CCc4cc(F)ccc43)ccc12 (racemic)", "°C", 184],
  ["O=C(Cc1ccc(Cl)cc1)Nc1cccc2nc(NC3CCc4cc(F)ccc43)ccc12 (racemic)", "°C", 221]
]}

Challenge: Fill in reported melting point for this entry: COc1ccc(CC(=O)Nc2cccc3nc(NC4CCc5cc(F)ccc54)ccc23)cc1 (racemic)
Response given: 192

Challenge: Fill in reported melting point for this entry: O=C(Cc1cc(F)cc(F)c1)Nc1cccc2nc(N[C@@H]3CCc4ccccc43)ccc12
Response given: 221

Challenge: Fill in reported melting point for this entry: COc1cccc2c1C(Nc1ccc3c(NC(=O)Cc4cc(F)cc(F)c4)cccc3n1)CC2 (racemic)
Response given: 248

Challenge: Fill in reported melting point for this entry: COc1cccc2c1C(Nc1ccc3c(NCCS(C)(=O)=O)cccc3n1)CO2 (racemic)
Response given: 188

Challenge: Fill in reported melting point for this entry: O=C(Cc1ccc(F)cc1)Nc1cccc2nc(NC3CCc4cc(F)ccc43)ccc12 (racemic)
Response given: 187

Challenge: Fill in reported melting point for this entry: O=C(CN1CCOCC1)Nc1cccc2nc(N[C@@H]3CCc4ccccc43)ccc12
Response given: 179

Challenge: Fill in reported melting point for this entry: O=C(Cn1ccnc1)Nc1cccc2nc(N[C@@H]3CCc4ccccc43)ccc12
Response given: 226

Challenge: Fill in reported melting point for this entry: O=C(Cc1ccc(F)cc1)Nc1cccc2nc(N[C@@H]3CCc4ccccc43)ccc12
Response given: 207

Challenge: Fill in reported melting point for this entry: O=C(Cc1cc(F)cc(F)c1)Nc1cccc2nc(NC3CCc4cc(F)ccc43)ccc12 (racemic)
Response given: 203

Challenge: Fill in reported melting point for this entry: COc1cccc2c1C(Nc1ccc3c(NC(=O)Cc4cccs4)cccc3n1)CC2 (racemic)
Response given: 194
